ASSAY_TARGET: cIAP1-BIR2 (Homo sapiens (Human), UniProt Q13490)
Sequence (Q13490 173-257): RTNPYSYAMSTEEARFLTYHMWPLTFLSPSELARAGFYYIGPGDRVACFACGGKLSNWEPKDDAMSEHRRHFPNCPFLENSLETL
METHOD_NOTES: BIR binding assay (FRET competition), cIAP1 BIR2
READOUT_KIND: IC50

# SMILES_STR, IC50
data = [
    ("C[C@@H]1CN(CC(=O)N2CC(C)(C)c3[nH]c(=O)c(Cc4ccc(F)cc4)cc32)[C@@H](CN2CCO[C@H](C(=O)NCC#CC#CCNC(=O)[C@@H]3CN(C[C@H]4CN[C@H](C)CN4CC(=O)N4CC(C)(C)c5[nH]c(=O)c(Cc6ccc(F)cc6)cc54)CCO3)C2)CN1", "0.0224 to 1 µM"),
]

Exam item: So what does the record say about IC50 for C[C@@H]1CN(CC(=O)N2CC(C)(C)c3[nH]c(=O)c(Cc4ccc(F)cc4)cc32)[C@@H](CN2CCN(C(=O)c3ccnc(-c4cc(C(=O)N5CCN(C[C@H]6CN[C@H](C)CN6CC(=O)N6CC(C)(C)c7[nH]c(=O)c(Cc8ccc(F)cc8)cc76)[C@H](C)C5)ccn4)c3)C[C@H]2C)CN1 ?
Marked response: 1 to 3.16 µM

Exam item: Again, but for C[C@@H]1CN(CC(=O)N2CC(C)(C)c3[nH]c(=O)c(Cc4ccc(F)cc4)cc32)[C@@H](CN2CCO[C@H](C(=O)NCCOCCOCCOCCNC(=O)[C@@H]3CN(C[C@H]4CN[C@H](C)CN4CC(=O)N4CC(C)(C)c5[nH]c(=O)c(Cc6ccc(F)cc6)cc54)CCO3)C2)CN1
Marked response: 1 to 3.16 µM

Exam item: Again, but for C[C@@H]1CN(CC(=O)N2CC(C)(C)c3[nH]c(=O)c(Cc4ccc(F)cc4)cc32)[C@@H](CN2CCC(CN(C)C(=O)c3ccc(C(=O)N(C)CC4CCN(C[C@H]5CN[C@H](C)CN5CC(=O)N5CC(C)(C)c6[nH]c(=O)c(Cc7ccc(F)cc7)cc65)CC4)cc3)CC2)CN1
Marked response: 1 to 3.16 µM
